# CONDITION: in THF, 288.45 K
PROPERTY LABEL: solubility (mole fraction)

// query Quick one: solubility (mole fraction) for O=P1(C(Nc2ccccc2)c2ccccc2)OCC2(CO1)COP(=O)(C(Nc1ccccc1)c1ccccc1)OC2 (stereo unspecified) ?
// result 0.00381

====

# CONDITION: in 1,2-dichloroethane, 283.35 K
PROPERTY LABEL: solubility (mole fraction)

// query Quick one: solubility (mole fraction) for O=P1(C(Nc2ccccc2)c2ccccc2)OCC2(CO1)COP(=O)(C(Nc1ccccc1)c1ccccc1)OC2 (stereo unspecified) ?
// result 0.000119

====

# CONDITION: in benzene, 283.25 K
PROPERTY LABEL: solubility (mole fraction)
When you answer, write just the number.

// query Quick one: solubility (mole fraction) for O=P1(C(Nc2ccccc2)c2ccccc2)OCC2(CO1)COP(=O)(C(Nc1ccccc1)c1ccccc1)OC2 (stereo unspecified) ?
// result 3.1e-05

====

# CONDITION: in dichloromethane, 303.35 K
PROPERTY LABEL: solubility (mole fraction)
When you answer, write just the number.

// query Quick one: solubility (mole fraction) for O=P1(C(Nc2ccccc2)c2ccccc2)OCC2(CO1)COP(=O)(C(Nc1ccccc1)c1ccccc1)OC2 (stereo unspecified) ?
// result 0.000342

Every entry's value here was drawn from BigSolDB 2.1.
